Data credit: the supplement of paper PMC7411054

- System: HepG2-CANX-COX4
- test protocol: phenotypically active (imaging signature differs from DMSO and reproducible) at any of 0.3-9 uM (binary (1 = active, 0 = inactive)); higher = active
- setup conditions: treatment time: 24 h
Structures can show the parent of a compound that is named as a salt.
Task for the reader: assign each of the following molecules its reported phenotypically active.
Give bare numbers.

1) CC1(CN2CCC(n3c(=O)[nH]c4ccccc43)CC2)OCc2ccccc2-n2cccc21 (centres undefined); 0
2) COc1ccc(CCc2nc3cc(-c4c(C)noc4C)ccc3n2C[C@H](C)N2CCOCC2)cc1Cl; 1
3) Nc1cc(N)c(N)cc1N [FAK Inhibitor 14]; 0
4) CC(C)NCC(O)COc1cccc2ccccc12 (centres undefined) [propranolol]; 0
5) Cc1ccc(OCCSc2ncccn2)c(Br)c1 [ZLN 024 hydrochloride]; 0

Items follow; give phenotypically active for each.
1. CC(C)Cn1c(=O)n(C)c(=O)c2[nH]cnc21
2. CCCc1nc2c(C)cc(-c3nc4ccccc4n3C)cc2n1Cc1ccc(-c2ccccc2C(=O)O)cc1 [telmisartan]
3. CN1CC[C@H](c2c(O)cc(O)c3c(=O)cc(-c4ccccc4Cl)oc23)[C@H](O)C1 [Flavopiridol hydrochloride]
4. CC(CN(C)C)CN1c2ccccc2CCc2ccccc21 (centres undefined) [trimipramine]

Result string:
1. 0
2. 0
3. 1
4. 0

Items follow; give phenotypically active for each.
1. CC[C@]1(O)C[C@@H]2CN(CCc3c([nH]c4ccccc34)[C@@](C(=O)OC)(c3cc4c(cc3OC)N(C=O)[C@H]3[C@@](O)(C(=O)OC)[C@H](OC(C)=O)[C@]5(CC)C=CCN6CC[C@]43[C@@H]65)C2)C1 [vincristine]
2. CN[C@H]1CC[C@@H](c2ccc(Cl)c(Cl)c2)c2ccccc21 [sertraline]
3. COc1cc(N2CCC(O)CC2)ccc1Nc1cc(Nc2ccccc2S(=O)(=O)C(C)C)c2cc[nH]c2n1 [Mps1-IN-1 dihydrochloride]
4. CN(C)CCC[C@@]1(c2ccc(F)cc2)OCc2cc(C#N)ccc21 [escitalopram]
5. NC(=O)c1cccnc1 [Nicotinamide]

Result string:
1. 1
2. 1
3. 1
4. 0
5. 0
